Source: patent US11897867B2

Test system: SK-MEL-3 (melanoma)
Assay Text: Cell proliferation measurement (Cell Titer Glo), SK-MEL-3
Format: cell-based
Measurement Context: Homo sapiens, SK-MEL3, SK-MEL-3 cells, 72 h treatment, read-out: Anti-proliferation IC50 SK-MEL-3 (melanoma)
Experimental: The antiproliferative activity of the compounds of the general formula (I) was examined in vitro in human cancer cells. […] After 72 h, the cells were treated with 20 μl/well of 50% CTG solution in PBS (Promega Cell Titer Glo (catalogue #G755B and G756B)) and incubated at room temperature for 10 min, and luminescence was measured by means of a VICTOR V (Perkin Elmer), in order to determine cell viability at the end of treatment. […] The IC50 values were calculated using a 4-parameter fit.
Property Name: IC50 (nM)

Sample records with IC50:
Specify reported IC50 for the molecule shown: O=C1CCC(c2ccc(-c3ccc(F)cc3)c(F)c2)=NN1
5.01

Return value of IC50 for input COc1ccc(OC)c(-c2ccc(C3=NNC(=O)CC3)cc2F)c1 , no commentary.
68.8

Tell me measured IC50 for O=C1CCC(c2ccc(N3CC(O)C3)c(C(F)(F)F)c2)=NN1 please.
15

Dear colleague, please send me the reported IC50 for O=C1CCC(c2ccc(C3=CCCC3)c(F)c2)=NN1 when you can.
4.13

Give recorded IC50. O=C1CCC(c2ccc(-c3cncnc3)c(F)c2)=NN1
47.6

[A] O=C1CCC(c2ccc(N3CCOCC3)c(F)c2)=NN1
[B] Cc1cc(C2=NNC(=O)CC2)ccc1-c1cccc(F)c1F
[C] O=C1CCC(c2ccc(-c3cccnc3F)c(F)c2)=NN1
[D] Cc1cccc(-c2ccc(C3=NNC(=O)CC3)cc2F)c1C
Ascending by IC50, please. Output the labels ranked as instructed.
C, A, D, B
(C: 6.25 nM, A: 19.9 nM, D: 40.4 nM, B: 70.8 nM)

---

Experimental Target: human full length PDE3B (Homo sapiens)
Sequence (Q13370 whole entry): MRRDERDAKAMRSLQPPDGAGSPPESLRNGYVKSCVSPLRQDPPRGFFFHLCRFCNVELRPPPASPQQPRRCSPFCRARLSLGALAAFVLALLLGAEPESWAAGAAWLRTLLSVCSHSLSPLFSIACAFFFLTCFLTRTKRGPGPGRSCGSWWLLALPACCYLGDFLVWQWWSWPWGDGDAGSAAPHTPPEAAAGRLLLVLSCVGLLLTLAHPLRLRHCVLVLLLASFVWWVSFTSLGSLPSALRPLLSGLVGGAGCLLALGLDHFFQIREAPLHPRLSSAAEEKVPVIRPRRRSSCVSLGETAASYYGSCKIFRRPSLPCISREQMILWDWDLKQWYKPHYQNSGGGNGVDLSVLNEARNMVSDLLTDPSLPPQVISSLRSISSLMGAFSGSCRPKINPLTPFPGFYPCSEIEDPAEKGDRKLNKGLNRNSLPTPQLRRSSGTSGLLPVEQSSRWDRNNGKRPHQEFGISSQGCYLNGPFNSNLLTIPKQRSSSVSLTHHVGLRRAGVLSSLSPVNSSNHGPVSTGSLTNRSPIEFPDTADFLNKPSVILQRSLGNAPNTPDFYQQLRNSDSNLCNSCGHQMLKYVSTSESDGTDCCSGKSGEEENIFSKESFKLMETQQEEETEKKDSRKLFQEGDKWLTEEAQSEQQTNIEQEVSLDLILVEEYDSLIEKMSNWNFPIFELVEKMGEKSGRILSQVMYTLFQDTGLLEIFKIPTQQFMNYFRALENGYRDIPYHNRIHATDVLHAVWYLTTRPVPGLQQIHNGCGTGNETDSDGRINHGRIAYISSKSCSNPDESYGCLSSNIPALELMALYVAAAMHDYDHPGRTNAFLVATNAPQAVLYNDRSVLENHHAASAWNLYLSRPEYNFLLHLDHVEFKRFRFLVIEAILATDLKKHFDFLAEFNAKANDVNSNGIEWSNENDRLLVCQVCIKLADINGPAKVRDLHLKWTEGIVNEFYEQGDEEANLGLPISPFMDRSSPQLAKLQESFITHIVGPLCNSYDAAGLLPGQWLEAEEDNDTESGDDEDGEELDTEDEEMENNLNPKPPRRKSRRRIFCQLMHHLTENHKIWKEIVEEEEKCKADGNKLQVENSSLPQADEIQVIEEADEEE
Property Name: IC50 (nM)

The cases that follow already have their IC50 on record.
Output IC50 of Cc1cc(C2=NNC(=O)CC2)ccc1C1=CCOCC1
35

Fill in IC50 for record O=C1CCC(c2ccc(-n3ccc(C(F)(F)F)n3)c(F)c2)=NN1
385

// fetch IC50 given entry O=C1CCC(c2ccc(N3CC4CC(C3)C4(F)F)c(C(F)(F)F)c2)=NN1
50

For CC(C)=Cc1ccc(C2=NNC(=O)CC2)cc1F , write its IC50.
140

Retrieve IC50 measured for O=C1CCC(c2cc(F)c(N3CCC(F)(F)CC3)c(F)c2)=NN1 and print it.
62

# return recorded IC50 for input Nc1ccc(F)cc1-c1ccc(C2=NNC(=O)CC2)cc1F
110

[A] O=C1CCC(c2ccc(-c3ccc(F)cc3)c(F)c2)=NN1
[B] O=C1CCC(c2ccc(N3CCC(F)(F)C3)c(C(F)(F)F)c2)=NN1
[C] Cc1cc(C2=NNC(=O)CC2)ccc1-c1ccccc1C#N
[D] Cc1ccc(-c2ccc(C3=NNC(=O)CC3)cc2F)c(F)c1
# sort list by recorded IC50, greatest to least Give the labels in the order requested.
C, B, D, A

---

pIC50: −log10 of the molar value.
Dear all, this message contains pIC50 results, target or system human full length PDE3A (Homo sapiens).
Property Name: pIC50

In the examples that follow, each entry is paired with its recorded pIC50.
Fill in pIC50 for record COc1ccc(-c2ccc(C3=NNC(=O)CC3)cc2F)cn1
7.08

For the compound O=C1CCC(c2ccc(-c3cc(F)c(F)cc3F)c(F)c2)=NN1 , give its measured pIC50 value.
7.00

Given CC1C2CC2CN1c1c(F)cc(C2=NNC(=O)CC2)cc1F (centres unmarked) , respond with its pIC50.
6.70

[a] CNc1ccc(C2=NNC(=O)CC2)cc1C(F)(F)F
[b] Cc1ccc(-c2ccc(C3=NNC(=O)CC3)cc2F)cc1N
# compare pIC50 for a vs b ; return the one with the smaller value Write the label of whichever entry you select.
a

---

Tested on: SK-MEL-3 (melanoma)
Assay Text: Cell proliferation measurement (Cell Titer Glo), SK-MEL-3
Format: cell-based
Measurement Context: Homo sapiens, SK-MEL3, SK-MEL-3 cells, 72 h treatment, read-out: Anti-proliferation IC50 SK-MEL-3 (melanoma)
Property Name: IC50 (nM)

// solved cases for IC50 follow
Recall the reported IC50 of Cc1ccc(-c2ccc(C3=NNC(=O)CC3)cc2C)cn1 [Example 93] when tested on SK-MEL-3 (melanoma).
24.7

Answer with IC50 of O=C1CCC(c2ccc(C3=CCCCC3)c(F)c2)=NN1 [Example 79] measured for SK-MEL-3 (melanoma).
6.15

[1] O=C1CCC(c2ccc(N3CCOCC3)c(C(F)(F)F)c2)=NN1 [Example 126]
[2] O=C1CCC(c2ccc(-c3ccc4cc[nH]c4c3)c(F)c2)=NN1 [Example 74]
[3] COc1cc(-c2ccc(C3=NNC(=O)CC3)cc2F)ccn1 [Example 32]
Sort these compounds on IC50 so the largest reading comes first. To answer, arrange all of the labels according to the requested order.
3, 2, 1
